Origin of values: ChEMBL document CHEMBL3871298

test system: Saccharomyces cerevisiae; assay: Binding affinity to yeast HSP90 N-terminal ATP binding domain by high-throughput virtual screening method
Calls of active or inactive are those of the source. No cut-off for these calls is given here.
measurement.label: Activity

- O=c1c2[nH]c3ccccc3c2ncn1CCc1c[nH]cn1: Active
- CCc1cc(C(=O)Cc2ccc(OC)cc2)c(O)cc1O: Active
- COc1ccc2[nH]cc(C(=O)CN3C[C@@H]4C[C@@H](C3)c3cccc(=O)n3C4)c2c1: Active

====

Tm values, listed per item
biological target: Heat shock protein HSP 90-alpha (Homo sapiens); assay: Binding affinity to human HSP90alpha isoform 1 N-terminal ATP binding domain (9 to 236 residues) expressed in Escherichia coli BL21(DE3) assessed as melting temperature at 100 uM by SYPRO orange dye-based thermal shift assay
Quick reminder: number only, in °C, skip the unit.

- CCCc1cc(C(=O)Cc2ccc(C(=O)OCC)o2)c(O)cc1O: 40.3

Task item: For the molecule shown here, CC(=O)Nc1ccc(N[C@@H]2O[C@H](CO)[C@@H](O)[C@H]2O)cc1 , give the reported Tm.
Reply: 31.8

Task item: If you can, please state the reported Tm value of CCc1cc(C(=O)Cc2ccc(OC)cc2)c(O)cc1O .
Reply: 42.1

Task item: Form field: reported Tm of O=c1c2[nH]c3ccccc3c2ncn1CCc1ccc(O)cc1
Reply: 30.8

Task item: Query: Tm; subject: O=C(Cc1c(O)c2ccccc2[nH]c1=O)NCCO
Reply: 32.8

Task item: GET /values?readout=Tm&item= O=c1c2[nH]c3ccccc3c2ncn1CCc1c[nH]cn1
Reply: 32.3

Task item: Could you share which Tm value was measured for Cc1cc(=O)oc2cc(OCc3ccc(C(=O)O)o3)ccc12 ?
Reply: 32.4

Task item: What value of Tm has been recorded for this entry: CCCc1cc(C(=O)Cc2ccc3c(c2)OCO3)c(O)cc1O
Reply: 41.7

Task item: Query (molecule): Cc1c(OCc2ccc(C(=O)O)o2)ccc2c3c(c(=O)oc12)CCC3 ; field requested: Tm
Reply: 32.7

====

molecular target: Heat shock protein HSP 90-alpha (Homo sapiens); experiment: Binding affinity to 15N-labeled human HSP90alpha isoform 1 N-terminal ATP binding domain (9 to 236 residues) expressed in Escherichia coli BL21(DE3) by 1H-15N HSQC NMR spectroscopy
measurement.label: Kd (µM)
The reply should be a number in µM, with the unit left off.

* CCOC(=O)c1ccc(-c2c(-c3cc(CC)c(O)cc3O)n[nH]c2C)o1 | 3
* O=C(Cc1ccc2c(c1)OCCCO2)c1ccc(O)c(O)c1O | 370
* CCCc1cc(C(=O)Cc2ccc(C(=O)OCC)o2)c(O)cc1O | 2

API: the following record is the query input.
Task item: Which Kd value belongs to CCc1cc(C(=O)Cc2ccc(OC)cc2)c(O)cc1O ?
Reply: 20

====

experiment: Aqueous solubility of the compound at >100 uM; type: physicochemical; settings: buffer
measurement.label: solubility

• CC(NCc1c(O)ccc2c(-c3ccccc3)cc(=O)oc12)C(=O)O (stereo not drawn) = Soluble
• CCOC(=O)c1ccc(-c2c(-c3cc(CC)c(O)cc3O)n[nH]c2C)o1 = Soluble
• CCCc1cc(C(=O)Cc2ccc(C(=O)OCC)o2)c(O)cc1O = Soluble

====

biological target: Heat shock protein HSP 90-alpha (Homo sapiens, UniProt P07900); experiment: Binding affinity to human HSP90alpha isoform 1 N-terminal ATP binding domain (9 to 236 residues) expressed in Escherichia coli BL21(DE3) assessed as melting temperature at 100 uM by SYPRO orange dye-based thermal shift assay
measurement.label: Tm (°C)
Give the number; °C is assumed, so skip it.

* Cc1oc2cc(OCC(=O)NCO)ccc2c(=O)c1-c1ccc2c(c1)OCCCO2 | 32.4

Task item: Need Tm of CCc1cc(-c2n[nH]c(C)c2-c2ccc3c(c2)OCCCO3)c(O)cc1OCC(=O)O , thanks.
Reply: 32.2

Task item: # get_value(readout='Tm', item= CC(NCc1c(O)ccc2c(-c3ccccc3)cc(=O)oc12)C(=O)O (configuration not stated) )
Reply: 32.5

Task item: Tm lookup needed for CCOC(=O)c1cc2n(c1N)-c1ccccc1C2=O , thanks.
Reply: 32.4

Task item: Need Tm, item CCOC(=O)c1ccc(-c2c(-c3cc(CC)c(O)cc3O)n[nH]c2C)o1
Reply: 49.8
